Test system: HS 578T breast
Experiment: NCI tumour cell line growth inhibition, 48 h
readout.label: TGI

>  <compound>
O=C(O)c1cn(C2CC2)c2cc(N3CCN(S(=O)(=O)c4ccc(Cl)c(Cl)c4)CC3)c(F)cc2c1=O

>  <target.system>
HS 578T breast

>  <TGI>
> 100 µM

$$$$
>  <compound>
COc1ccc2nc(-c3ccccc3)cc(Nc3ccc(/C(C)=N/O)cc3)c2c1

>  <target.system>
HS 578T breast

>  <TGI>
5.31 µM

$$$$
>  <compound>
CN(C)CCCNC(=O)c1cc(NC(=O)c2cc(NC(=O)c3cc(NC(=O)CCCn4ccc(CO)c4CO)cn3C)cn2C)cn1C

>  <target.system>
HS 578T breast

>  <TGI>
98.2 µM

$$$$

The reported TGI of the compound O=C1CC(c2ccccc2)Cc2nc3ccc(Cl)cc3cc21 (centres undefined) was > 100 µM

Measured TGI of N=C(N)n1[nH]c2c(c1=O)CCC2 : > 100 µM

Input O=c1c2c([nH]c3cc4c(cc13)OCO4)-c1ccccc1CCC2 . Output TGI: > 50 µM

# TGI of CCCCCCC(CCl)c1sc(-c2csc(CCNC(=O)OC(C)(C)C)n2)nc1C(=O)OC (centres undefined) = 65.9 µM

----------
System: A498 renal
Experiment: NCI tumour cell line growth inhibition, 48 h
Decide by TGI: equal to or exceeding 40 µM means Satisfied, less means Not satisfied.

# example entries with known answers
>  <compound>
CCOC(=O)c1c(-c2[nH]c(C(=O)OCc3ccccc3)c(C)c2C(=O)OCC)[nH]c(C(=O)OCc2ccccc2)c1C

>  <discrete.label>
Satisfied

$$$$
>  <compound>
O=c1c2c([nH]c3cc4c(cc13)OCO4)-c1ccccc1CCC2

>  <discrete.label>
Satisfied

$$$$
>  <compound>
COc1ccc2[nH]c(C(=O)N3CC(CCl)c4ccc([N+](=O)[O-])cc43)cc2c1 (stereo not given)

>  <discrete.label>
Satisfied

$$$$
>  <compound>
Cc1ccnc(NC(=S)Nc2ccccc2Cl)c1

>  <discrete.label>
Satisfied

$$$$
>  <compound>
O=C1c2ccccc2C2(c3ccc(Cl)cc3)NCc3ccccc3CN12 (stereo not given)

>  <discrete.label>
Satisfied

$$$$
>  <compound>
Cc1nnc(N)nc1/C=C\c1cccs1

>  <discrete.label>
Satisfied

$$$$
>  <compound>
Cc1cccc2c(N)c3cccc(C(=O)NCC[N+](C)(C)Cc4sc(N5CCOCC5)nc4[N+](=O)[O-])c3nc12

>  <discrete.label>
Not satisfied

$$$$
>  <compound>
CCCCCC(/C=C/[C@@H]1CC(=O)C[C@H]1O[Si](C)(C)C(C)(C)C)OCOCCOC (stereo not given in full)

>  <discrete.label>
Not satisfied

$$$$
>  <compound>
COc1ccc2oc(-c3ccncc3)cc(=O)c2c1

>  <discrete.label>
Satisfied

$$$$

// switching to the query compound
Check the entry CN(C)CCCNC(=O)c1cc2c3ccccc3[nH]c2c2ncccc12 : does TGI equal or exceed 40 µM? Not satisfied

----------
System: HOP-92 NSCLC
Test: NCI tumour cell line growth inhibition, 48 h
Each entry below lists one item and its recorded TGI value.

Answered cases to consult:
>  <compound>
O=C(CCc1cc(O)cc(O)c1)NCCc1ccc(O)c(O)c1

>  <TGI>
> 100 µM

$$$$
>  <compound>
c1ccc(C(CCN2CCCC2)c2ccccn2)cc1 (stereo not given)

>  <TGI>
> 100 µM

$$$$

Let's switch to this compound now.
TGI reading for C[C@H](CC[C@@H](O)C(C)(C)O)[C@H]1CC[C@@]2(C)[C@@H]3CC=C4[C@@H](CC[C@H](OC5OC(CO)C(O)C(O)C5O)C4(C)C)[C@]3(C)C(=O)C[C@]12C (stereo not given in full) : > 100 µM
